test.system: 3',5'-cyclic-AMP phosphodiesterase 4B (Homo sapiens, UniProt Q07343)
Sequence (Q07343 whole entry): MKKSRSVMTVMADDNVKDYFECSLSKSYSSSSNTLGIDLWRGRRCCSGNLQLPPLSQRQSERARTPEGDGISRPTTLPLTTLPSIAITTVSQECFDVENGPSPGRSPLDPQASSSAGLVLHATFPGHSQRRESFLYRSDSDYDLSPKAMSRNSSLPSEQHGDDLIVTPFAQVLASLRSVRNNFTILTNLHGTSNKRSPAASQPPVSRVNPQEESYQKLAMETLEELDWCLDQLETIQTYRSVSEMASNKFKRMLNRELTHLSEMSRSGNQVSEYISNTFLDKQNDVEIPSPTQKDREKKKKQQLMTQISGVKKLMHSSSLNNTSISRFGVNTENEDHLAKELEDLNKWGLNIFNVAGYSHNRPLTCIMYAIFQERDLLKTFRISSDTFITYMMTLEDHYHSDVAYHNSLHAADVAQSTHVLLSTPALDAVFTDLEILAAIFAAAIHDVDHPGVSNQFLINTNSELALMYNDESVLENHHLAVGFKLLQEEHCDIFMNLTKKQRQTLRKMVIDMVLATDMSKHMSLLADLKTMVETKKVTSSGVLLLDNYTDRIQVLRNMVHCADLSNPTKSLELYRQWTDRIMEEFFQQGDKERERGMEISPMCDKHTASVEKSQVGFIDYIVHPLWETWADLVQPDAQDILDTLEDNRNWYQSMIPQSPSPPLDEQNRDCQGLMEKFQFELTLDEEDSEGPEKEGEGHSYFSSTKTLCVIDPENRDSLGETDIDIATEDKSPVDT
experiment.summary: Inhibition of PDE4B (unknown origin)
pIC50: −log10 of the molar value.

| smiles.entry | pIC50 |
| --- | --- |
| OB1OCc2cc(Oc3ccc4cc(C(F)(F)F)ccc4n3)ccc21 | 9.38 |
| N#Cc1ccc(Oc2ccc3c(c2)COB3O)cc1 | 7.15 |

---

test.system: cGMP-specific 3',5'-cyclic phosphodiesterase (Homo sapiens, UniProt O76074)

| smiles.entry | test.system | unit.label | IC50 |
| --- | --- | --- | --- |
| OB1OCc2cc(Oc3ccc4cc(C(F)(F)F)ccc4n3)ccc21 | cGMP-specific 3',5'-cyclic phosphodiesterase (Homo sapiens, UniProt O76074) | nM | 819 |
